In this section we review reported melting point values for a set of compounds.
propertyName: melting point

- compound: "COC[C@H]1CCCN1C(=O)c1ccc2c(-c3cnc4ccc(C#N)cn34)nn(C)c2c1.Cl (hydrate or solvate) [Example 101]"
  propertyName: "melting point"
  result: "230 to 235 °C"
- compound: "CN1CCN(C(=O)n2nc(-c3cnc4ccc(F)cn34)c3ccc(C(=O)N4CCCCCC4)cc32)CC1.Cl [Example 111]"
  propertyName: "melting point"
  result: "193 to 199 °C"
- compound: "Cl.O=C(c1ccc2c(-c3cnc4ccc(F)cn34)nn(Cc3ccccc3)c2c1)N1CCCCCC1 [Example 107]"
  propertyName: "melting point"
  result: "134 to 135 °C"
- compound: "Cl.O=C(c1ccc2c(-c3cnc4ccc(F)cn34)noc2c1)N1CCCCC1"
  propertyName: "melting point"
  result: "203 to 205 °C"
- compound: "CCc1ccc2ncc(-c3nn(C)c4cc(C(=O)N5CCCCCC5)ccc34)n2c1.Cl"
  propertyName: "melting point"
  result: "> 250 °C"
- compound: "O=C(c1ccc(C(=O)N2CCCc3ccccc32)cc1)c1cnc2ccccn12 [Example 71]"
  propertyName: "melting point"
  result: "169 to 175 °C"
- compound: "Nc1cc(C(=O)N2CCCCCC2)ccc1C(=O)c1cnc2ccc(F)cn12 [Example 30]"
  propertyName: "melting point"
  result: "141 to 152 °C"
- compound: "N#Cc1ccc2ncc(C(=O)c3ccc(C(=O)N4CCCCCC4)cc3F)n2c1 [Example 73]"
  propertyName: "melting point"
  result: "128 to 130 °C"
- compound: "Cl.Cn1nc(-c2cnc3ccc(F)cn23)c2ccc(C(=O)N3CCCCCCCC3)cc21 (hydrate or solvate)"
  propertyName: "melting point"
  result: "240 to 245 °C"
- compound: "CCN(C(=O)c1ccc2c(-c3cnc4ccc(F)cn34)noc2c1)C(C)C.Cl"
  propertyName: "melting point"
  result: "219 to 225 °C"
- compound: "O=C(c1ccc2c(c1)nnn2-c1cnc2ccc(F)cn12)N1CCCCCC1 [Example 132]"
  propertyName: "melting point"
  result: "160 to 166 °C"
- compound: "Cl.Cn1nc(-c2cnc3ccc(F)cn23)c2ccc(C(=O)N3CCCCC3)cc21 (hydrate or solvate)"
  propertyName: "melting point"
  result: "> 250 °C"
- compound: "Cl.Cn1nc(-c2cnc3ccc(F)cn23)c2ccc(C(=O)N3CCCC4CCCCC43)cc21 (centres unmarked)"
  propertyName: "melting point"
  result: "248 to 249 °C"
- compound: "Cl.Cn1nc(-c2cnc3ccc(F)cn23)c2ccc(C(=O)N(CC3CC3)C3CCCCC3)cc21"
  propertyName: "melting point"
  result: "235 to 245 °C"
- compound: "O=C(c1ccc2c(-c3cnc4ccc(F)cn34)noc2c1)N1CCCCCC1 [Example 113]"
  propertyName: "melting point"
  result: "218 to 219 °C"
- compound: "CN(C(=O)c1ccc(C(=O)c2cnc3ccc(F)cn23)cc1)c1ccccc1 [Example 50]"
  propertyName: "melting point"
  result: "131 to 135 °C"
- compound: "CCN(C(=O)c1ccc2c(-c3cnc4ccc(F)cn34)nn(C)c2c1)C(C)C.Cl"
  propertyName: "melting point"
  result: "> 250 °C"
